Target: C19orf61; also: reference of the scale not given here
Assay: pooled miR-30 sensor sort-seq; sequence = guide strand
Settings: shRNA
MEASURE: sensor-assay potency score (higher = more potent)

QUERY_SEQUENCE: TTGGGTAATAAAGAAGTCGATG
MEASURED_RESULT: -0.372

QUERY_SEQUENCE: TCTGCTGTCTGCAGGAACCTGT
MEASURED_RESULT: -0.731

QUERY_SEQUENCE: TTGACCGCTCTGCTGGAGGTTT
MEASURED_RESULT: -0.879

QUERY_SEQUENCE: TTCTCGGTGAGGATCGTGTGTG
MEASURED_RESULT: -0.797

QUERY_SEQUENCE: TTGGCTGACAACAATGACATGA
MEASURED_RESULT: 0.194

QUERY_SEQUENCE: TAAAGAGCTCTCCAGACCCTGC
MEASURED_RESULT: -0.972

QUERY_SEQUENCE: TTGCATTGTAACATGGACAGAG
MEASURED_RESULT: 0.588

QUERY_SEQUENCE: TCATCCACCAACTTGATGCTGT
MEASURED_RESULT: 0.069
